pIC50: −log10 of the molar value.
Below are pIC50 measurements against IRAK4 (Homo sapiens (Human)) drawn from the literature.

>  <sample.smiles>
CCc1nc2c(N[C@H]3CC[C@@H](N4CCC(F)(F)CC4)CC3)nc(Nc3cnn(C)c3)nc2s1

>  <subject.of.test>
IRAK4 (Homo sapiens (Human))

>  <pIC50>
≥ 6.00

$$$$
>  <sample.smiles>
NC(=O)[C@@H](O)C[C@H]1CCc2sc3ncnc(N[C@H]4CC[C@H](N5CCOCC5)CC4)c3c21

>  <subject.of.test>
IRAK4 (Homo sapiens (Human))

>  <pIC50>
> 5.30

$$$$
>  <sample.smiles>
CN(CCc1ccccn1)[C@H]1CC[C@H](Oc2ncnc3sc4c(c23)[C@@H](CC(N)=O)CC4)CC1

>  <subject.of.test>
IRAK4 (Homo sapiens (Human))

>  <pIC50>
> 5.30

$$$$
>  <sample.smiles>
CC(C)Nc1c(-c2cn(CC3CC3)nn2)cnc2ccc(-c3cn[nH]c3)cc12

>  <subject.of.test>
IRAK4 (Homo sapiens (Human))

>  <pIC50>
8.22

$$$$
>  <sample.smiles>
CCC[C@H](N)c1cccc(-c2cc(OC)c3cnn(-c4cncc(CO)n4)c3c2)n1

>  <subject.of.test>
IRAK4 (Homo sapiens (Human))

>  <pIC50>
> 7.00

$$$$
>  <sample.smiles>
COc1cc2nn(C3CCN(CCCCCNC(=O)c4ccc(OC)c(N5CCC(=O)NC5=O)c4)CC3)cc2cc1NC(=O)c1cccc(C(F)(F)F)n1

>  <subject.of.test>
IRAK4 (Homo sapiens (Human))

>  <pIC50>
7.91

$$$$
>  <sample.smiles>
CC1(C)OC(=O)c2ccc(Nc3ncc(-c4nnc(-c5cccnc5)o4)c(N[C@H](CO)c4ccccc4)n3)cc21

>  <subject.of.test>
IRAK4 (Homo sapiens (Human))

>  <pIC50>
6.00 to 6.60

$$$$

====

Below are IC50 measurements against IRAK4 (Homo sapiens (Human), UniProt Q9NWZ3) drawn from the literature.
attribute.measured: IC50

>  <compound>
CC[C@@H]1[C@H](F)C(=O)N[C@@H]1COc1nccc2cc(C(N)=O)c(OC)nc12

>  <subject.of.test>
IRAK4 (Homo sapiens (Human), UniProt Q9NWZ3)

>  <test.value>
< 100 nM

$$$$
>  <compound>
CC(C)(O)[C@H](F)CNC(=O)c1cnc(Nc2ccc3ncsc3c2)cc1N[C@H]1CC[C@H](N)CC1

>  <subject.of.test>
IRAK4 (Homo sapiens (Human), UniProt Q9NWZ3)

>  <test.value>
7 nM

$$$$
>  <compound>
CC(C)Nc1c(C(=O)NCc2cocn2)cnc2sc(-c3cncs3)cc12

>  <subject.of.test>
IRAK4 (Homo sapiens (Human), UniProt Q9NWZ3)

>  <test.value>
21.6 nM

$$$$
>  <compound>
CC(C)Nc1c(C(=O)NC[C@@H](F)C(C)(C)O)cnc2sc(-c3cncc(C#N)c3)cc12

>  <subject.of.test>
IRAK4 (Homo sapiens (Human), UniProt Q9NWZ3)

>  <test.value>
18.6 nM

$$$$
>  <compound>
CC(C)Nc1cc(-n2ncc3cc(C#N)cnc32)ncc1-c1cn(CC2COC2)cn1

>  <subject.of.test>
IRAK4 (Homo sapiens (Human), UniProt Q9NWZ3)

>  <test.value>
11 nM

$$$$
>  <compound>
CN1CCN(C(=O)CCCc2cn(-c3ccccc3)c(NC(=O)c3cccc(-c4ccc5ncsc5c4)c3)n2)CC1

>  <subject.of.test>
IRAK4 (Homo sapiens (Human), UniProt Q9NWZ3)

>  <test.value>
< 50 nM

$$$$
>  <compound>
CC(C)Nc1cc(Nc2ccc3ncsc3c2)ncc1C(=O)NC1CCC(C(C)(C)O)CC1 (stereo not shown)

>  <subject.of.test>
IRAK4 (Homo sapiens (Human), UniProt Q9NWZ3)

>  <test.value>
1.6 nM

$$$$
>  <compound>
O=C1CC[C@@H](COc2nccc3cc4c(=O)[nH]cc(CCO)c4cc23)N1

>  <subject.of.test>
IRAK4 (Homo sapiens (Human), UniProt Q9NWZ3)

>  <test.value>
10.4 nM

$$$$
>  <compound>
COc1cc2nn(C3CCN(CC4CCC5(CC4)CCN(C(=O)c4ccc(F)c(N6CCC(=O)NC6=O)c4)CC5)CC3)cc2cc1NC(=O)c1cccc(C(F)(F)F)n1

>  <subject.of.test>
IRAK4 (Homo sapiens (Human), UniProt Q9NWZ3)

>  <test.value>
52.4 nM

$$$$
>  <compound>
CC(=O)N1CC[C@H]1c1cc(-c2cnc(-n3ncc4cc(C#N)cnc43)cc2NC(C)C)on1

>  <subject.of.test>
IRAK4 (Homo sapiens (Human), UniProt Q9NWZ3)

>  <test.value>
15 nM

$$$$
>  <compound>
CC1(C)OC(=O)c2ccc(Nc3ncc(C(=O)NCCCn4ccnc4)c(N[C@H](CO)c4ccccc4)n3)cc21

>  <subject.of.test>
IRAK4 (Homo sapiens (Human), UniProt Q9NWZ3)

>  <test.value>
250 to 1000 nM

$$$$
>  <compound>
C[C@]1(O)CC[C@H](Nc2nc(Nc3cc(C(=O)NCCCO)ns3)nc3ccsc23)CC1

>  <subject.of.test>
IRAK4 (Homo sapiens (Human), UniProt Q9NWZ3)

>  <test.value>
≤ 100 nM

$$$$
>  <compound>
CCCn1cc(-c2cnc(-n3ncc4cc(C#N)cnc43)cc2NC(C)C)nn1

>  <subject.of.test>
IRAK4 (Homo sapiens (Human), UniProt Q9NWZ3)

>  <test.value>
4 nM

$$$$
>  <compound>
CC(=O)N1CCC(c2cc(-c3cnc4ccc(-c5cn[nH]c5)cc4c3NC(C)C)on2)CC1

>  <subject.of.test>
IRAK4 (Homo sapiens (Human), UniProt Q9NWZ3)

>  <test.value>
6.7 nM

$$$$
>  <compound>
CN1CCN(C(=O)CCCc2cn(-c3ccccc3)c(NC(=O)c3cccc(-c4cnn(C)c4)c3)n2)CC1

>  <subject.of.test>
IRAK4 (Homo sapiens (Human), UniProt Q9NWZ3)

>  <test.value>
< 50 nM

$$$$
>  <compound>
C=Cc1ccc2nccc(N[C@H]3CC[C@H](N4CCC5(CC4)CC5)CC3)c2c1

>  <subject.of.test>
IRAK4 (Homo sapiens (Human), UniProt Q9NWZ3)

>  <test.value>
≤ 5000 nM

$$$$

====

Below are pIC50 measurements against IRAK4 (Homo sapiens (Human), UniProt Q9NWZ3) drawn from the literature.
pIC50: −log10 of the molar value.

>  <compound>
CCC[C@H](N)c1cccc(-c2cc(COC(F)(F)F)c3cnn(-c4cccc(CO)n4)c3c2)n1

>  <readout.qualifier>
>

>  <pIC50>
7.00

$$$$
>  <compound>
Nc1ncc(-c2nc3ccncc3s2)c(N[C@@H]2C[C@H](CO)[C@@H](O)[C@H]2O)n1

>  <readout.qualifier>
=

>  <pIC50>
7.80

$$$$
>  <compound>
CC(C)Nc1cc(-n2ncc3cc(C#N)cnc32)ncc1-n1cc(C2CCN(C(=O)OC(C)(C)C)CC2)nn1

>  <readout.qualifier>
=

>  <pIC50>
7.85

$$$$
>  <compound>
CS(=O)(=O)CCCn1cc(Nc2nc(N[C@H]3CC[C@H](N4CCOCC4)CC3)c3cc(C#N)ccc3n2)cn1

>  <readout.qualifier>
≥

>  <pIC50>
5.30

$$$$
>  <compound>
CC(C)Nc1c(C(=O)NC(CCO)C2CC2)cnc2sc(-c3cncs3)cc12 (stereo not drawn)

>  <readout.qualifier>
=

>  <pIC50>
6.26

$$$$
>  <compound>
N#Cc1ccc2nc(Nc3cnn(CCO)c3)nc(N[C@H]3CC[C@H](N4CCOCC4)CC3)c2c1

>  <readout.qualifier>
≥

>  <pIC50>
5.30

$$$$
>  <compound>
CC(=O)N1CC[C@@H](n2cc(-c3cnc(-n4ncc5cc(C#N)cnc54)cc3NC(C)C)nn2)[C@@H](O)C1

>  <readout.qualifier>
=

>  <pIC50>
7.80

$$$$
>  <compound>
OC[C@H]1C[C@@H](Nc2nc(Nc3cccc(O)c3)ncc2-c2nc3ccccc3s2)[C@H](O)[C@@H]1O

>  <readout.qualifier>
=

>  <pIC50>
7.92

$$$$
>  <compound>
CC(=O)Cn1cc(-c2cnc(-n3ncc4cc(C#N)cnc43)cc2NC(C)C)nn1

>  <readout.qualifier>
=

>  <pIC50>
8.70

$$$$
>  <compound>
Cn1cc(-c2ccc3[nH]c4ncnc(NCCCN5CCOCC5)c4c3c2)cn1

>  <readout.qualifier>
=

>  <pIC50>
5.82

$$$$
>  <compound>
CCC[C@H](N)c1cccc(-c2cc(N3CCC(C(=O)O)CC3)c3cnn(-c4cccc(CO)n4)c3c2)n1

>  <readout.qualifier>
>

>  <pIC50>
7.00

$$$$
>  <compound>
CC(C)(O)[C@H](F)Cn1cc(-c2cnc(-c3ccc4cc(C#N)cnn34)cc2N[C@H]2CCC[C@@H](O)C2)nn1

>  <readout.qualifier>
>

>  <pIC50>
9.00

$$$$
>  <compound>
FC(F)(F)c1n[nH]cc1-c1ccc2ncnc(N[C@H]3CC[C@H](N4CCOCC4)CC3)c2c1

>  <readout.qualifier>
=

>  <pIC50>
7.10

$$$$
>  <compound>
C=CC(=O)N1CCC[C@H](c2nc(-c3ccc(NC(=O)c4cccc(-c5ccn[nH]5)n4)c(OC(F)(F)F)c3)no2)C1

>  <readout.qualifier>
=

>  <pIC50>
6.10

$$$$
>  <compound>
COc1cc(-c2cccc([C@@H](N)C3CC3)n2)cc2c1cnn2-c1cncc(CO)n1

>  <readout.qualifier>
>

>  <pIC50>
7.00

$$$$
>  <compound>
CC[C@@H](C)Oc1cc2nc(C34COC(CF)(C3)C4)cn2cc1C(=O)Nc1cccn(C2CC2)c1=O (single isomer, unassigned)

>  <readout.qualifier>
=

>  <pIC50>
8.89

$$$$
>  <compound>
CCCc1cn(-c2cnc(-n3ncc4cc(C#N)cnc43)cc2NC2COC2)nn1

>  <readout.qualifier>
=

>  <pIC50>
7.77

$$$$
>  <compound>
CC(C)Nc1cc(-n2ncc3cc(C#N)cnc32)ncc1-n1cc(Cc2ccccc2)cn1

>  <readout.qualifier>
=

>  <pIC50>
7.21

$$$$
>  <compound>
CC(C)Oc1c(C(=O)Nc2cccn([C@H]3C[C@H]3F)c2=O)cn2cc(C34COC(C)(C3)C4)nc2c1F (single isomer, unassigned)

>  <readout.qualifier>
=

>  <pIC50>
9.22

$$$$
>  <compound>
Cn1cc(-c2cccc(C(=O)Nc3nc(CCCC(=O)N4CCCC(F)(F)C4)cn3-c3ccccc3)c2)cn1

>  <readout.qualifier>
>

>  <pIC50>
7.30

$$$$
>  <compound>
Cc1cc(Nc2nc(N[C@H]3CC[C@@H](N)CC3)c3sccc3n2)sn1

>  <readout.qualifier>
≥

>  <pIC50>
7.00

$$$$
>  <compound>
CCC[C@H](N)c1cccc(-c2cc(NCC(CCl)C(=O)O)c3cnn(-c4cccc(CO)n4)c3c2)n1 (stereo partly drawn)

>  <readout.qualifier>
>

>  <pIC50>
7.00

$$$$
>  <compound>
CC[C@H](N)c1cccc(-c2cc(OCCOC)c3cnn(-c4cncc(CO)n4)c3c2)n1

>  <readout.qualifier>
>

>  <pIC50>
7.00

$$$$
>  <compound>
CN(C)[C@H]1CC[C@H](Nc2ncnc3sc4c(c23)C(C(=O)NCCO)CC4)CC1 (stereo partly drawn)

>  <readout.qualifier>
>

>  <pIC50>
5.30

$$$$
>  <compound>
CC(C)(O)[C@H](F)CNC(=O)c1cnc(Nc2ccc3ncsc3c2)cc1NC(C1CC1)C1CC1

>  <readout.qualifier>
=

>  <pIC50>
7.26

$$$$
>  <compound>
CC(C)Nc1cc(Nc2ccc3ncsc3c2)ncc1C(=O)N[C@H]1CC[C@H](NC(=O)N2CCOCC2)CC1

>  <readout.qualifier>
=

>  <pIC50>
8.74

$$$$
>  <compound>
CNC(=O)CCCc1cn(-c2ccccc2)c(NC(=O)c2cccc(-c3ccncc3)c2)n1

>  <readout.qualifier>
>

>  <pIC50>
7.30

$$$$
>  <compound>
CC(N)c1cccc(-c2ccc3cnn(-c4cccc(CO)n4)c3c2)n1 (stereo not drawn)

>  <readout.qualifier>
>

>  <pIC50>
7.00

$$$$
>  <compound>
Cc1cc(Nc2nc(O[C@H]3CC[C@@H](N(C)C)CC3)c3sccc3n2)sn1

>  <readout.qualifier>
≥

>  <pIC50>
7.00

$$$$
